System: Noggin (protein binding on small-molecule microarray)
Test: Noggin binders on small-molecule microarray, primary screen, biochemical, 635/667 nm fluorescence (AID 1095);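 also: score merges 667 nm feature fluorescence with signal to noise over triplicate slides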
Conditions: 635 nm fluorescence, higher = more signal

- MOLECULE: "COc1ccc(O[C@@H]2[C@H](O)CO[C@@H]2C=Cc2ccccc2)cc1"
  composite z-score: 0.135
- MOLECULE: "C#CCCCON=C1C[C@@H](O)[C@@H](O)[C@@H]2[C@@H]3C(=O)N(c4cccc(Oc5ccccc5)c4)C(=O)[C@@H]3CC[C@H]12"
  composite z-score: -0.738
- MOLECULE: "COC(=O)[C@H]1[C@@H](O)[C@@]2(O)c3ccccc3O[C@@]2(c2ccccc2)[C@@H]1c1ccccc1"
  composite z-score: -0.169
- MOLECULE: "C[C@H]1CC[C@H]2C(=O)O[C@H](COc3ccc(C(C)(C)C)cc3)CN2[C@@H]1c1ccc(Br)cc1"
  composite z-score: -0.0084
- MOLECULE: "COc1ccc(COC(=O)NN=C2C[C@@H](O)[C@@H](O)[C@@H]3[C@@H]4C(=O)N(c5ccc(F)cc5F)C(=O)[C@@H]4CC[C@H]23)cc1"
  composite z-score: -0.186
- MOLECULE: "CCO[C@H](c1cc(OC)cc([N+](=O)[O-])c1OC)[C@H](C)C=CCC(=O)OC"
  composite z-score: 0.927
- MOLECULE: "CCOC(=O)[C@H](Cc1ccccc1)NC(=O)CCC1CC(OC(=O)NCc2cccc3ccccc23)CC2(CCCC(COC(=O)NCc3ccccc3)O2)O1 (stereo not given in full)"
  composite z-score: 0.547
- MOLECULE: "C#CCCCON=C1[C@H]2CCn3c(=O)n(C)c(=O)n3[C@H]2[C@H](O)[C@@H]2O[C@H]12"
  composite z-score: 1.18
- MOLECULE: "CCC=CCCC(OC(=O)c1ccc(Br)cc1)C1=CCCCC1=O (stereo not given)"
  composite z-score: 0.493
- MOLECULE: "CO[C@H]1COC(=O)CC=C[C@H](C)COC(=O)[C@@H](C)NC(=O)CC=C[C@@H]1C"
  composite z-score: 1.88
- MOLECULE: "COC(=O)[C@H](C)NC(=O)CCC1CC(OC(=O)NCc2ccc3c(c2)OCO3)CC2(CCCC(COC(=O)NCC(c3ccccc3)c3ccccc3)O2)O1 (stereo not given in full)"
  composite z-score: 1.5
- MOLECULE: "CO[C@H](C1CCCCC1)[C@H](C)C=CCC(=O)OCCCc1ccccc1"
  composite z-score: -0.0107
- MOLECULE: "COC(=O)[C@H](C)NC(=O)CCC1CC(OC(=O)NCc2ccc3c(c2)OCO3)CC2(CCCC(COC(=O)NCc3cccc(C(F)(F)F)c3)O2)O1 (stereo not given in full)"
  composite z-score: 0.186
- MOLECULE: "COC(=O)[C@H](C)NC(=O)CCC1CC(OC(=O)NCc2ccc3c(c2)OCO3)CC2(CCCC(COC(=O)NCCc3ccccc3OC)O2)O1 (stereo not given in full)"
  composite z-score: 0.181
- MOLECULE: "C[C@@H]1NC(=O)[C@@H](C)COC(=O)[C@H](C)NC(=O)[C@@H](C)COC1=O"
  composite z-score: 0.79

---

Target: Follistatin (Homo sapiens)
Test: follistatin binders on small-molecule microarrays, primary screen, biochemical, small-molecule microarray, 635/667 nm fluorescence (AID 1132)
Details: FST binding, 635 nm fluorescence, higher = more signal

- COMPOUND: "COC(=O)[C@H](C)NC(=O)CCC1CC(OC(=O)NCCc2ccc(F)cc2)CC2(CCCC(COC(=O)NCc3cccc(C(F)(F)F)c3)O2)O1 (stereo partly specified)"
  composite z-score: 1.19
- COMPOUND: "CO[C@H]1COC(=O)CCC[C@@H](C)[C@H](OC)COC(=O)[C@@H]2CCCN2C(=O)CC=C[C@@H]1C"
  composite z-score: 1.33
- COMPOUND: "Cc1ccc(S(=O)(=O)OC[C@H]2CN3[C@H](c4ccc(Br)cc4)[C@@H](C)CC[C@H]3C(=O)O2)cc1"
  composite z-score: 1.1
- COMPOUND: "CC(CCN1CCCCc2nc(C)c(C)cc21)=NO[C@H](C)c1cn([C@H](CO)Cc2ccccc2)nn1"
  composite z-score: 0.965
- COMPOUND: "Cc1ccc(S(=O)(=O)NC(CCc2ccccc2)CC(=O)C(C)(C)C)cc1 (stereo unspecified)"
  composite z-score: 0.615
- COMPOUND: "CCOC(=O)CCN1C(=O)[C@H]2[C@H]3[C@H](O)[C@H](O)CC(=NOCc4ccccc4)[C@H]3CC[C@H]2C1=O"
  composite z-score: -0.851

---

In this section we review reported composite z-score values for a set of compounds.
Assay: small-molecule binders of probe aInhba, primary screen, biochemical, small-molecule microarray, 635/667 nm fluorescence (AID 1148);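 also: score merges 667nm spot fluorescence with signal-to-noise for antibody binding to printed compounds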
Conditions: higher = more signal

- COMPOUND: "CCOC(=O)[C@H](Cc1ccccc1)NC(=O)CCC1CC(OC(=O)NCCc2ccc(F)cc2)CC2(CCCC(COC(=O)NCCc3ccccc3OC)O2)O1 (some centres undefined)"
  composite z-score: -0.0897
- COMPOUND: "C=Cc1ccc([C@H]2N[C@H](C(=O)O)CC[C@@H]2C)cc1"
  composite z-score: -0.0714
- COMPOUND: "CCOC(=O)[C@H](CC(C)C)NC(=O)CCC1CC(OC(=O)NCc2cccc3ccccc23)CC2(CCCC(COC(=O)NCCc3ccc(Cl)cc3)O2)O1 (some centres undefined)"
  composite z-score: -0.0987
- COMPOUND: "C[C@@H]1C=CCC(=O)OC[C@H]2O[C@@H](C=C[C@@H]2O)[C@H](C)C=CCC(=O)OC1"
  composite z-score: -0.206
- COMPOUND: "O=C1C[C@@H](O)[C@@H](O)[C@@H]2[C@@H]3C(=O)N(C[C@@H]4CCCO4)C(=O)[C@@H]3CC[C@H]12"
  composite z-score: -0.128
- COMPOUND: "CCOC(=O)[C@H](CC(C)C)NC(=O)CCC1CC(OC(=O)NCc2ccc3c(c2)OCO3)CC2(CCCC(COC(=O)NCc3cccc(C(F)(F)F)c3)O2)O1 (some centres undefined)"
  composite z-score: 0.0184
- COMPOUND: "CCN1C(=O)[C@H]2[C@H]3[C@H](O)[C@H](O)CC(=NOC[C@H]4O[C@H](c5ccccc5)C=C[C@@H]4Oc4ccc(OC)cc4)[C@@H]3CC[C@H]2C1=O"
  composite z-score: 0.0497
- COMPOUND: "CO[C@@H]1C=CCC(=O)N2CCC[C@H]2C(=O)OC[C@@H](C)C(=O)OC[C@H]1C"
  composite z-score: -0.0762
- COMPOUND: "CCOC(=O)[C@H](CC(C)C)NC(=O)CCC1CC(OC(=O)NCc2ccc3c(c2)OCO3)CC2(CCCC(COC(=O)NCC(c3ccccc3)c3ccccc3)O2)O1 (some centres undefined)"
  composite z-score: -0.0405

---

Experiment: MM1S cell viability effects, profiling panel, calcein-AM fluorescence, 48 h, basal (AID 1165);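 also: viability of MM1S multiple myeloma cells under basal unstimulated conditions; test concentration not given here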
Conditions: higher = more signal

- COMPOUND: "CC(C)CON=C1C[C@@H](O)[C@@H](O)[C@@H]2[C@@H]3C(=O)N(C(C)(C)C)C(=O)[C@@H]3CC[C@H]12"
  z-score: 0.246
- COMPOUND: "COC(=O)[C@H]1[C@@H](O)[C@@]2(O)c3ccccc3O[C@@]2(c2ccccc2)[C@@H]1c1ccccc1"
  z-score: -2.81
- COMPOUND: "CCN1C(=O)[C@@H]2[C@H]3C(=CC[C@@H]2C1=O)C1(OCCCO1)[C@H]1O[C@H]1[C@H]3O"
  z-score: -3.56
- COMPOUND: "COc1ccc(O[C@H]2C=C[C@@H](c3ccccc3)O[C@@H]2CON=CC[C@@H]2C=C[C@H](OC(C)=O)[C@@H](COC(C)=O)O2)cc1"
  z-score: 0.306
- COMPOUND: "O=C(NN=C1C[C@@H](O)[C@@H](O)[C@@H]2[C@@H]3C(=O)N(Cc4ccccc4)C(=O)[C@@H]3CC[C@@H]12)OCc1ccccc1"
  z-score: 0.372
- COMPOUND: "COC(=O)CC=C[C@@H](C)[C@@H](C=NO[C@H](C)c1cn([C@H](CO)Cc2ccccc2)nn1)NS(=O)(=O)c1ccc(C)cc1"
  z-score: -0.0023
- COMPOUND: "CCOC(=O)[C@H](CC(C)C)NC(=O)CCC1CC(OC(=O)NCc2cccc3ccccc23)CC2(CCCC(COC(=O)NCC3CCCCC3)O2)O1 (stereo partly drawn)"
  z-score: -2.66
- COMPOUND: "CC(C)(C)N1C(=O)[C@H]2[C@H]3[C@H](O)[C@H](O)CC(=O)[C@@H]3CC[C@H]2C1=O"
  z-score: -0.102
- COMPOUND: "C#CCCCON=C1C[C@@H](O)[C@@H](O)[C@@H]2[C@@H]3C(=O)N(CCC(=O)OCC)C(=O)[C@@H]3CC[C@H]12"
  z-score: -0.0993
- COMPOUND: "C#CCCCON=C1C[C@@H](O)[C@@H](O)[C@@H]2[C@@H]3C(=O)N(Cc4ccccc4)C(=O)[C@@H]3CC[C@@H]12"
  z-score: -0.488
- COMPOUND: "CCc1cc2c(nc1CC)CCN(CCC(C)=NO[C@H](C)c1cn([C@@H]3COC[C@H]3O)nn1)C2"
  z-score: 0.546
- COMPOUND: "O=C1[C@H]2[C@H]3[C@H](O)[C@H](O)CC(=NOCc4ccccc4)[C@@H]3CC[C@H]2C(=O)N1Cc1ccc2c(c1)OCO2"
  z-score: 0.266
- COMPOUND: "COc1cccc([C@H]2Oc3ccc(OC)cc3C(=NOC[C@@H](O)COCc3ccco3)[C@@H]2O)c1"
  z-score: 0.667
